B1: TPR t1 (parent)
chain: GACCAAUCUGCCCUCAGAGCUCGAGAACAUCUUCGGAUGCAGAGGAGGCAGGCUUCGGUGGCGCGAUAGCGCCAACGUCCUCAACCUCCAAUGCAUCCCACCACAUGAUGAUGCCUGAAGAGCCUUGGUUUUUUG

variants of: B1; test: polymerase ribozyme fitness, log enrichment relative to wild type (log ratio); higher = more active; in vitro selection for triplet polymerase activity
Readout Kind: polymerase ribozyme fitness (log ratio)

Known polymerase ribozyme fitness (log ratio) results, listed for orientation:
# Mutant Code, Readout Kind, Recorded Value
records = [
    ("A41U C76A U81A", "polymerase ribozyme fitness (log ratio)", -1.77),
    ("C15G A37C C49U C53U", "polymerase ribozyme fitness (log ratio)", -4.47),
    ("C11G C12A G69C C104A", "polymerase ribozyme fitness (log ratio)", -2.8),
    ("A41G C70U C82A U125G", "polymerase ribozyme fitness (log ratio)", -1.79),
    ("C53U C102U", "polymerase ribozyme fitness (log ratio)", -2.44),
]

# batch size: 3; output polymerase ribozyme fitness (log ratio) per entry
1. U38C G44U A91U G120U
2. C101G U133G
3. A43U G63U U134G

[-2.19, -2.02, -3.02]

// input: 3 variants below; output: polymerase ribozyme fitness (log ratio) for each
1. C56G C70A A83G U96C G120A
2. C64U C82U A95G
3. A5U A43G C102A U116C

1. -4.37
2. -0.455
3. -5.9

Give measured polymerase ribozyme fitness (log ratio) for every item shown.
1. U32G C62A C102A A111G
2. C8A C124A

1: -6.35; 2: 2.16
